Let's look at some compounds and their measured combination cScore with adagrasib.
System: NCI-H2122
Assay: combination cScore with adagrasib (Bliss gap around IC50) (%PoC); higher = stronger additive effect
In your answer, state the number alone without any accompanying words.

COMPOUND	combination cScore with adagrasib
COc1cc(CCc2cc(NC(=O)c3ccc(N4CC(C)NC(C)C4)cc3)n[nH]2)cc(OC)c1 (stereo not given) [AZD4547] + C=C(F)C(=O)N1CCN(c2nc(OC[C@@H]3CCCN3C)nc3c2CCN(c2cccc4cccc(Cl)c24)C3)C[C@@H]1CC#N	11.3

# combination cScore with adagrasib (compound: Nc1ncn([C@H]2C[C@H](O)[C@@H](CO)O2)c(=O)n1 [Decitabine] + C=C(F)C(=O)N1CCN(c2nc(OC[C@@H]3CCCN3C)nc3c2CCN(c2cccc4cccc(Cl)c24)C3)C[C@@H]1CC#N ) is 3.82

Lab note: measured combination cScore with adagrasib of COc1cc([C@@H]2c3cc4c(cc3[C@@H](O[C@@H]3O[C@@H]5CO[C@@H](C)O[C@H]5[C@H](O)[C@H]3O)[C@H]3COC(=O)[C@H]23)OCO4)cc(OC)c1O [Etoposide] + C=C(F)C(=O)N1CCN(c2nc(OC[C@@H]3CCCN3C)nc3c2CCN(c2cccc4cccc(Cl)c24)C3)C[C@@H]1CC#N was 2.33

Record summary for Cc1cc(C)c(CNC(=O)c2cc(-c3ccc(N4CCNCC4)nc3)cc3c2c(C)cn3C2CCCC2)c(=O)[nH]1 + C=C(F)C(=O)N1CCN(c2nc(OC[C@@H]3CCCN3C)nc3c2CCN(c2cccc4cccc(Cl)c24)C3)C[C@@H]1CC#N : reported combination cScore with adagrasib = 20.3

# combination cScore with adagrasib (compound: Cc1c(N)nc([C@H](CC(N)=O)NC[C@H](N)C(N)=O)nc1C(=O)N[C@H](C(=O)N[C@H](C)[C@@H](O)[C@H](C)C(=O)N[C@H](C(=O)NCCc1nc(-c2nc(C(=O)NCCC[S+](C)C)cs2)cs1)[C@@H](C)O)[C@@H](OC1OC(CO)C(O)C(O)C1OC1OC(CO)C(O)C(OC(N)=O)C1O)c1cnc[nH]1 (stereo not given in full) [Bleomycin] + C=C(F)C(=O)N1CCN(c2nc(OC[C@@H]3CCCN3C)nc3c2CCN(c2cccc4cccc(Cl)c24)C3)C[C@@H]1CC#N ) is 17.2

The reported value for CCc1nc(N)nc(N)c1-c1ccc(Cl)cc1 [Pyrimethamine] + C=C(F)C(=O)N1CCN(c2nc(OC[C@@H]3CCCN3C)nc3c2CCN(c2cccc4cccc(Cl)c24)C3)C[C@@H]1CC#N in terms of combination cScore with adagrasib is 15.2

The value of combination cScore with adagrasib measured for the compound CS(=O)(=O)CCNCc1ccc(-c2ccc3ncnc(Nc4ccc(OCc5cccc(F)c5)c(Cl)c4)c3c2)o1 [Lapatinib] + C=C(F)C(=O)N1CCN(c2nc(OC[C@@H]3CCCN3C)nc3c2CCN(c2cccc4cccc(Cl)c24)C3)C[C@@H]1CC#N turned out to be 18.6

Briefly, combination cScore with adagrasib measured for O=C(O)CCCCC(CCSCc1ccccc1)SCc1ccccc1 (stereo not given) [CPI-613] + C=C(F)C(=O)N1CCN(c2nc(OC[C@@H]3CCCN3C)nc3c2CCN(c2cccc4cccc(Cl)c24)C3)C[C@@H]1CC#N : -5.48
